The origin of these recorded values is patent US20260041670A1.

assay: in vivo; conditions: ICR, mouse, 5 mg/kg, maximum plasma concentration (Cmax)
measured quantity: Cmax

CNCc1ccc(-c2cc(=O)c3ccc4nc(C(F)(F)F)[nH]c4c3o2)cc1; 947 ng/mL

* * *

assay: Stability in microsomes (mouse); format: in vitro ADME; conditions: liver microsomes, read-out: Stability-Microsomes CL
measured quantity: microsomal CLint

CNCc1ccc(-c2cc(=O)c3ccc4nc(C(F)(F)F)[nH]c4c3o2)cc1; 10.5 µL/min/mg

* * *

assay: Stability in plasma (mouse); format: in vitro ADME; conditions: plasma, read-out: Stability-Plasma T1/2
measured quantity: half-life

CNC(=O)c1ccc(-c2cc(=O)c3ccc4nc(C(F)(F)F)[nH]c4c3o2)cc1; > 8 h
CN(C)C(=O)c1ccc(-c2cc(=O)c3ccc4nc(C(F)(F)F)[nH]c4c3o2)cc1; > 8 h
CNCc1ccc(-c2cc(=O)c3ccc4nc(C(F)(F)F)[nH]c4c3o2)cc1; > 8 h

* * *

experiment: in vivo; conditions: ICR, mouse, iv, 2 mg/kg
measured quantity: AUC (ng·h/mL)

CNCc1ccc(-c2cc(=O)c3ccc4nc(C(F)(F)F)[nH]c4c3o2)cc1; 2320

* * *

assay: in vivo; details: ICR, mouse, inhaled or intranasal, 5 mg/kg, maximum plasma concentration (Cmax)
measured quantity: Cmax (ng/mL)

CNCc1ccc(-c2cc(=O)c3ccc4nc(C(F)(F)F)[nH]c4c3o2)cc1; 947

* * *

The entries below come with measured half-life values attached.
assay: Stability in hepatocytes (human); assay type: in vitro ADME; details: hepatocytes, read-out: Stability-Hepatocytes T1/2
measured quantity: half-life

CN(C)C(=O)c1ccc(-c2cc(=O)c3ccc4nc(C(F)(F)F)[nH]c4c3o2)cc1; > 8 h
CNC(=O)c1ccc(-c2cc(=O)c3ccc4nc(C(F)(F)F)[nH]c4c3o2)cc1; > 8 h
CNCc1ccc(-c2cc(=O)c3ccc4nc(C(F)(F)F)[nH]c4c3o2)cc1; > 8 h

* * *

test: in vivo; settings: ICR, mouse, t1/2
measured quantity: half-life

CNCc1ccc(-c2cc(=O)c3ccc4nc(C(F)(F)F)[nH]c4c3o2)cc1; 4.09 h

* * *

assay: in vivo; settings: ICR, mouse, iv, 2 mg/kg, plasma half-life (t½)
measured quantity: half-life

CNCc1ccc(-c2cc(=O)c3ccc4nc(C(F)(F)F)[nH]c4c3o2)cc1 [#2]; 50.4 min

* * *

assay: in vivo; settings: ICR, mouse, po, 5 mg/kg, brain t1/2
measured quantity: half-life (h)

CNCc1ccc(-c2cc(=O)c3ccc4nc(C(F)(F)F)[nH]c4c3o2)cc1; 3.49

* * *

test: in vivo; conditions: ICR, mouse, po, 5 mg/kg, Cmax
measured quantity: Cmax (ng/mL)

CNCc1ccc(-c2cc(=O)c3ccc4nc(C(F)(F)F)[nH]c4c3o2)cc1; 90.8

* * *

test: in vivo; conditions: ICR, mouse, inhaled or intranasal, 5 mg/kg, elimination half-life
measured quantity: half-life

CNCc1ccc(-c2cc(=O)c3ccc4nc(C(F)(F)F)[nH]c4c3o2)cc1 [#2]; 1.54 h
